- Tested on: Ramos-2G6-4C10;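 note: growth inhibition of the cell line, measured by a cell viability read-out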
- METHOD: cells
- Type: functional, cell-based, Homo sapiens
- STUDY_CONDITIONS: Homo sapiens, Ramos-2G6-4C10
- Description: SANGER: Inhibition of human Ramos-2G6-4C10 cell growth in a cell viability assay.
pIC50: −log10 of the molar value.
Below, each entry is listed alongside its reported pIC50.

STRUCTURE_SMILES_STRING	QUAL	pIC50
OC[C@H](Cc1ccccc1)Nc1nc(Oc2ccc3c(c2)CCC3)nc2c1ncn2Cc1ccc(-c2ccccc2)cc1	=	5.12
CC1(C)CCC(c2ccc(Cl)cc2)=C(CN2CCN(c3ccc(C(=O)NS(=O)(=O)c4ccc(N[C@H](CCN5CCOCC5)CSc5ccccc5)c(S(=O)(=O)C(F)(F)F)c4)cc3)CC2)C1	=	5.76
Cc1ccc(C(=O)Nc2ccc(CN3CCN(C)CC3)c(C(F)(F)F)c2)cc1C#Cc1cnc2cccnn12	<	6.29
Cc1cc(N2CCOCC2)cc2[nH]c(-c3c(NC[C@@H](O)c4cccc(Cl)c4)cc[nH]c3=O)nc12	<	5.29
